# Tested on: 898857-211-R-J1-PDC complex spheroids, growth % test/control;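 further: spheroids exposed to compound for seven days before readout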
# method: Anticancer human tumor 898857-211-R-J1-PDC patient-derived melanoma cell line growth inhibition [RAS]
# study_conditions: second compound 0.0949 µM; first compound 10 µM; active compounds read low
Rule: measured viability, T/C below 50% gets rule met; anything equal to or greater than 50% gets rule not met.

Answered examples (5):
compound="CC(=O)OC12COC1CC(O)C1(C)C(=O)C(O)C3=C(C)C(OC(=O)C(O)C(NC(=O)OC(C)(C)C)c4ccccc4)CC(O)(C(OC(=O)c4ccccc4)C21)C3(C)C (configuration not stated) + CCn1c(-c2cccnc2C(C)OC)c2c3cc(ccc31)N1CCOC(CC(NC(=O)C(C(C)C)N(C)C(=O)C3(F)CCN(C(=O)C#CC(C)(C)N(C)C)CC3)C(=O)N3CCCC(N3)C(=O)OCC(C)(C)C2)C1" classification="rule met"
compound="CCC(CC)c1cc(NC2CCC(N)C2)n2nccc2n1 (configuration not stated) + CCn1c(-c2cc(N3CCN(C)CC3)cnc2C(C)OC)c2c3cc(ccc31)-c1csc(n1)CC(NC(=O)C1CC1C)C(=O)N1CCCC(N1)C(=O)OCC(C)(C)C2" classification="rule met"
compound="CC(=O)OC12COC1CC(O)C1(C)C(=O)C(O)C3=C(C)C(OC(=O)C(O)C(NC(=O)OC(C)(C)C)c4ccccc4)CC(O)(C(OC(=O)c4ccccc4)C21)C3(C)C (configuration not stated) + CCn1c(-c2cc(N3CCN(C)CC3)cnc2C(C)OC)c2c3cc(ccc31)-c1csc(n1)CC(NC(=O)C1CC1C)C(=O)N1CCCC(N1)C(=O)OCC(C)(C)C2" classification="rule met"
compound="CC(Nc1ccc2c(c1)OCCn1cc(N3C(=O)OCC3C(F)F)nc1-2)C(N)=O (configuration not stated) + CCn1c(-c2cc(N3CCN(C)CC3)cnc2C(C)OC)c2c3cc(ccc31)-c1csc(n1)CC(NC(=O)C1CC1C)C(=O)N1CCCC(N1)C(=O)OCC(C)(C)C2" classification="rule met"
compound="CC(Nc1ccc2c(c1)OCCn1cc(N3C(=O)OCC3C(F)F)nc1-2)C(N)=O (configuration not stated) + CCn1c(-c2cccnc2C(C)OC)c2c3cc(ccc31)N1CCOC(CC(NC(=O)C(C(C)C)N(C)C(=O)C3(F)CCN(C(=O)C#CC(C)(C)N(C)C)CC3)C(=O)N3CCCC(N3)C(=O)OCC(C)(C)C2)C1" classification="rule not met"

Inquiry: Criterion: viability, T/C strictly below 50%. Is it met by NC1c2ccccc2OC12CCN(c1cnc3c(N4CCCc5ncccc54)n[nH]c3n1)CC2 (configuration not stated) + CCn1c(-c2cccnc2C(C)OC)c2c3cc(ccc31)N1CCOC(CC(NC(=O)C(C(C)C)N(C)C(=O)C3(F)CCN(C(=O)C#CC(C)(C)N(C)C)CC3)C(=O)N3CCCC(N3)C(=O)OCC(C)(C)C2)C1 ?
Reply text: rule not met

Inquiry: Criterion: viability, T/C strictly below 50%. Is it met by C[C@@H](NC(=O)c1ncnc(N)c1Cl)c1ncc(C(=O)Nc2cc(C(F)(F)F)c(Cl)cn2)s1 + CCn1c(-c2cc(N3CCN(C)CC3)cnc2C(C)OC)c2c3cc(ccc31)-c1csc(n1)CC(NC(=O)C1CC1C)C(=O)N1CCCC(N1)C(=O)OCC(C)(C)C2 ?
Reply text: rule met
